molecular target: HIV-1 NL4-3 Env on infected cells (HIV-1 group M subtype B, NL4-3 (pNL4-3 …, strain))
Readout name: binding result

# Binder, Result value
records = [
    ("c21122 (antibody, V domains shown) VH: QVQLAQSAAEVKRPGASVKVSCKVSGNTLMEVSIQWVRQTPGKGLEWLGGFAPEKDDWVYAQKFLGRVTMTEDTSTDIAYMHMNSLTSDDTATYYCVGGWQAWGQGTLVTVSS VL: DIQMTQSPSSLSASVGDRITITCRASQDIINYLAWYQQQAGRAPKSLIYAASSLQSGVPSKFSGSGSGTNFSLTISSLQPEDFATYYCQQYYSYPLTFGGGTKVDLR", "binds"),
    ("c807 (antibody, V domains shown) VH: QVQLQESAPRLVTTSETLSLTCTVFGGQFYPFFYSWVRQSPGGKLQWIGRKYSSTGSMRTNPSLHTRVGMPLDHSKSQIGLTMSSMTAADTGIYYCVRDIMREFDSVDGSGGVYGGVDVWGRGTTVTVSS VL: NFMLTQPPSVSESPGKTVTISCTRNSGSIASNSVYWYRQRPGSPPTTLIHDNNRRPTGVPDRFSASIDTSSNSASLTISSLKTEDEADYYCQSYDNGNHVIFGGGTNLLVL", "binds"),
]

Source listed as paper PMC8196545.
